# target.desc: NaV1.6 (Homo sapiens (Human), UniProt Q9UQD0)
# Sequence (Q9UQD0 whole entry): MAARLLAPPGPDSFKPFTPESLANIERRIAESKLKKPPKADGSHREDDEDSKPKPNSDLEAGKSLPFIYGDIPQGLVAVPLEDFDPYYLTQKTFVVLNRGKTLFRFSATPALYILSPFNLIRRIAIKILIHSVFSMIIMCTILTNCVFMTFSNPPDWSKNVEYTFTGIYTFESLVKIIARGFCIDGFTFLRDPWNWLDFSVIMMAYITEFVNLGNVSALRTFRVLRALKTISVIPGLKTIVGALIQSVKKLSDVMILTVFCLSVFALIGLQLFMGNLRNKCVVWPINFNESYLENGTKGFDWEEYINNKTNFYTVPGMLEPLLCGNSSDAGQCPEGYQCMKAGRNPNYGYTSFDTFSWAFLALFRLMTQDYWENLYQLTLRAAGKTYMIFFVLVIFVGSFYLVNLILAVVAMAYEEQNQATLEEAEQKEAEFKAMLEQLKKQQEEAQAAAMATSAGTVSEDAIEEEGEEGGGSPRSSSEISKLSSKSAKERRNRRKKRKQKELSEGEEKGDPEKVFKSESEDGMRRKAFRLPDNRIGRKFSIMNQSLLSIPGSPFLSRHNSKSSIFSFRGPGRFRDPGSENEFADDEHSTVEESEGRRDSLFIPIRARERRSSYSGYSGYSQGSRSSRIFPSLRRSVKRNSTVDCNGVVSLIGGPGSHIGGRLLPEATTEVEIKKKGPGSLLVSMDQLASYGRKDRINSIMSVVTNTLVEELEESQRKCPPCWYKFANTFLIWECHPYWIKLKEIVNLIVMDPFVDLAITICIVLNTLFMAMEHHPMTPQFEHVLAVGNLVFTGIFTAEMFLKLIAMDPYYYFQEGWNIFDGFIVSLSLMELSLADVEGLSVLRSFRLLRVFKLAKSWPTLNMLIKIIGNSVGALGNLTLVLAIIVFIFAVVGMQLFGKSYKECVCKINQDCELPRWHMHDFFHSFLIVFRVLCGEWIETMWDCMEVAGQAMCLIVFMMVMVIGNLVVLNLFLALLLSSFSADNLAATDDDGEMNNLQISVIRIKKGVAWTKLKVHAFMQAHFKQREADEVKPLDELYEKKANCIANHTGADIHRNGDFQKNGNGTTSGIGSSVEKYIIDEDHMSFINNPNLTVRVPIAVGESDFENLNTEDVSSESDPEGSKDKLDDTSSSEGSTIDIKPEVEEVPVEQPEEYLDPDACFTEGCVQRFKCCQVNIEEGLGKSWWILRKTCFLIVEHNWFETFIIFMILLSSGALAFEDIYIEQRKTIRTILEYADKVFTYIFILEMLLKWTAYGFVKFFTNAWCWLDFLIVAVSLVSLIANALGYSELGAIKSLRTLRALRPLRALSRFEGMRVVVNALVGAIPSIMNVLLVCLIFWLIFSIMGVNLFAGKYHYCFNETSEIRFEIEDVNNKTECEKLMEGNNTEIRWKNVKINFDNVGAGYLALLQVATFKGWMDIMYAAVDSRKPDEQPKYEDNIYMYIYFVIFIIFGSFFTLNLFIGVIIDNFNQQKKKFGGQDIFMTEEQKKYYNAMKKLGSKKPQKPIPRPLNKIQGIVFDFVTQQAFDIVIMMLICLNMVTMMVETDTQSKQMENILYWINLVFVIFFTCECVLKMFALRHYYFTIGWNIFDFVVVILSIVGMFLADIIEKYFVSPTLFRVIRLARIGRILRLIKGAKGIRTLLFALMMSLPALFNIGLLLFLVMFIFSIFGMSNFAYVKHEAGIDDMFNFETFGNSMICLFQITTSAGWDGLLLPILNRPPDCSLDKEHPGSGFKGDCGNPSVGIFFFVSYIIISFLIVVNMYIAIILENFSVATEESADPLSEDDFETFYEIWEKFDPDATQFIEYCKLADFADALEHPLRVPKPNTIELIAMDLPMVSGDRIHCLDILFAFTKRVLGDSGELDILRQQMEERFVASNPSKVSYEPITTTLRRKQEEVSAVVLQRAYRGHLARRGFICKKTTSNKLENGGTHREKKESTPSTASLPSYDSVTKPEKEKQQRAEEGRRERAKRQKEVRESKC
# method.notes: Electrophysiological Assay (EP), patch voltage clamp, NaV1.6;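 also: sodium current recorded at ambient temperature, channels held inactivated then briefly repolarized to −150 mV for 20 ms before a test pulse, control currents in 0.5% DMSO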
# Assay type: cell-based
# settings: HEK-293 cells, whole-cell patch clamp
Counter-ions that a name gives are not always drawn.
What IC50 was measured for each of the following?
Give bare numbers, in nM.

Please review the following examples before continuing.
compound: C[C@H](Nc1cc(F)c(S(=O)(=O)Nc2nccs2)c(F)c1)c1ccccc1F
reported.result: 12
--
compound: COc1cccc(CN2CCC2)c1CNc1cc(F)c(S(=O)(=O)Nc2cscn2)c(F)c1 [Example 209, 2,2,2-trifluoroacetate]
reported.result: 76
--
compound: O=S(=O)(Nc1cscn1)c1cc(Cl)c(N[C@H](c2cc(F)ccc2F)C(F)F)cc1F
reported.result: 85
--
compound: COC1(C)CN(Cc2cccc(F)c2CNc2cc(F)c(S(=O)(=O)Nc3cscn3)c(F)c2)C1 [Example 172, formate]
reported.result: 23
--
compound: O=S(=O)(Nc1nccs1)c1cc(Cl)c(NC2(c3ccccc3)CC2)cc1F
reported.result: 28

Quick request: IC50 for each listed item, please.
1. O=S(=O)(Nc1nccs1)c1cc(Cl)c(NC(CC(F)(F)F)c2ccccc2)cc1F (centres unmarked)
2. C[C@H](Nc1cc(F)c(S(=O)(=O)Nc2nccs2)cc1Cl)c1ccccc1F
3. O=S(=O)(Nc1cscn1)c1cc(Cl)c(N[C@H](CN2CCCC2)c2ccccc2)cc1F

result:
1. 10
2. 13
3. 1140
